Source: patent US9951372B2

Biological target: rat diaphorase (Rattus norvegicus, UniProt P05982)
Construct: purchased Sigma
Sequence (P05982 2-274 limits assumed): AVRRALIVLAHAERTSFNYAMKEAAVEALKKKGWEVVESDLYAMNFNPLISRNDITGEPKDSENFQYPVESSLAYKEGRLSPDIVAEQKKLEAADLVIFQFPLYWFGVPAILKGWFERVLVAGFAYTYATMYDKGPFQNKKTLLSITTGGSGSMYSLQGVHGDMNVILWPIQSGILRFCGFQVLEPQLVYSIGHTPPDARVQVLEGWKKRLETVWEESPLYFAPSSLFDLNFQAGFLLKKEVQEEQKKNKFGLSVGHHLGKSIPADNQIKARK
Format: biochemical
Conditions: 70 min; 10 uM NADH

{"compound": "CC1=C(C)C(=O)C(C(C)(C)CC(=O)N(C)CCN(C)C(=O)Oc2ccc3c(c2)Oc2cc(OC(=O)N(C)CCN(C)C(=O)CC(C)(C)C4=C(C)C(=O)C(C)=C(C)C4=O)ccc2C32OC(=O)c3ccccc32)=C(C)C1=O", "system tested": "rat diaphorase (Rattus norvegicus, UniProt P05982)", "Fluorescence time course, Rat [FLUs]": 8891}
{"compound": "CC1=CC(=O)C(C)=C(C(C)(C)CC(=O)N(C)CCN(C)C(=O)Oc2ccc3c(c2)Oc2cc(OC(=O)N(C)CCN(C)C(=O)CC(C)(C)C4=C(C)C(=O)C=C(C)C4=O)ccc2C32OC(=O)c3ccccc32)C1=O", "system tested": "rat diaphorase (Rattus norvegicus, UniProt P05982)", "Fluorescence time course, Rat [FLUs]": 9925}
{"compound": "CC1=CC(=O)C(C)=C(C(C)(C)CC(=O)N(C)CCN(C)C(=O)Oc2ccc3c(c2)Oc2cc(O)ccc2C32OC(=O)c3ccccc32)C1=O (stereo not shown)", "system tested": "rat diaphorase (Rattus norvegicus, UniProt P05982)", "Fluorescence time course, Rat [FLUs]": 175380}
{"compound": "CC1=C(C)C(=O)C(C(C)(C)CC(=O)N(C)CCN(C)C(=O)Oc2ccc3c(c2)Oc2cc(O)ccc2C32OC(=O)c3ccccc32)=C(C)C1=O (stereo not shown)", "system tested": "rat diaphorase (Rattus norvegicus, UniProt P05982)", "Fluorescence time course, Rat [FLUs]": 182618}
